B1: CPEB3 Ribozyme (parent)
chain: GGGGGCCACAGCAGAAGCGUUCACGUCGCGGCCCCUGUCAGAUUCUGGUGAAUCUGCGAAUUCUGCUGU

Variants of: B1
Assay: self-cleavage, relative activity (ratio to wild type); higher = more cleavage; co-transcriptional
recordedMetric: self-cleavage
Please give only the number in your answer, with no unit.

GGGGGCCACAGCAGAAGCUUUCACGUGGCGGCCCCUGUCAGAUUCUGGUGAAUCUGCGAAUUCUGCUGU
0.82
GGGGGGCACAGCAGAAGCGUUCACGUCGCGGCCCCUGUCAGAUUCUGGUGAAUCUGCGAAUGCUGCUGU
0.0551

Please look up its self-cleavage: `GGGGGCCACAGCAGAAGCGUUCAGGUCGCGGCCCCUGUCAGACUCUGGUGAAUCUGCGAAUUCUGCUGU` 0.309

Please look up its self-cleavage: `GGGGGCCACAGCAGAAGCGUUCACGUCGGGGCCCCUGUCAGAUUCUGGUAAAUCUGCGAAUUCUGCUGU` 0.609

Please look up its self-cleavage: `GGGGGCCACAGCAGAAGCGAUCACGUCGCGGCCCCUGUCAGAUUCUGGUGAAUCUGCGAAUACUGCUGU` 0.0929

Please look up its self-cleavage: `GGGGGCCACAGCAGAAGCGUUCACGUCGCGGCCCCUGUCAGAUUCAGGUGAAUCUGCGAAUUCUGCUCU` 0.97

Please look up its self-cleavage: `GGGGGCCACAGCAAAAGCGUUCACGUCGCGGCCCCUGUCAGAUUGUGGUGAAUCUGCGAAUUCUGCUGU` 0.638

Please look up its self-cleavage: `GGGGGCCACAGCAGAAGCGUUCACGUCGCGGCCCCUGUCAGAGUCUGGUGAAUCUGCGAACUCUGCUGU` 0.332

Please look up its self-cleavage: `GGGGGCCACAGCAAAAGCGUUCACGUCGCGGCCCCUGUCAGAUUCUGGUGAAUCGGCGAAUUCUGCUGU` 0.172

Please look up its self-cleavage: `GGGGGCCACAGCAGAAGCGUGCACGUCGCGACCCCUGUCAGAUUCUGGUGAAUCUGCGAAUUCUGCUGU` 0.175

Please look up its self-cleavage: `GGGGGCCACAGCAUAAGGGUUCACGUCGCGGCCCCUGUCAGAUUCUGGUGAAUCUGCGAAUUCUGCUGU` 0.0825

Please look up its self-cleavage: `GGGGGCCACAGCAGAAGCGUUCACGUCGCGGCCCCUGUCAGAUUAUGGUGAAUCUGCAAAUUCUGCUGU` 1

Please look up its self-cleavage: `GGGGGCCACAGUAGAAGCGUUCACGUCGCGGCCCCUGUCAGAUUCUGGUGAAUCUGCGAAUUCUACUGU` 1

Please look up its self-cleavage: `GGGGGCCACAGCAGAAGCGUUCACGUCGCGGUCCCUGUCAGAUUCUGGUGAAUCUGCGAAUUCUGGUGU` 0.923

Please look up its self-cleavage: `GGGGGCCACAUCAGAAGCGUUCACGUCGCGGCCCCUGUCAGAUUCUGGUGAAUCUGAGAAUUCUGCUGU` 0.31

Please look up its self-cleavage: `GGGGGCCACACCAGAAGCGUUCACGUCGCCGCCCCUGUCAGAUUCUGGUGAAUCUGCGAAUUCUGCUGU` 0.435

Please look up its self-cleavage: `GGGCGCCACAGCAGAAGCGUUCACGUCCCGGCCCCUGUCAGAUUCUGGUGAAUCUGCGAAUUCUGCUGU` 0.0443

Please look up its self-cleavage: `GGGGGCCACAGCAGAGGCGUUCACGUCGCGGCCCCUGUCAGAUUCGGGUGAAUCUGCGAAUUCUGCUGU` 0.969

Please look up its self-cleavage: `GGGGGCUACAGCAGGAGCGUUCACGUCGCGGCCCCUGUCAGAUUCUGGUGAAUCUGCGAAUUCUGCUGU` 0.927

Please look up its self-cleavage: `GGGGGCCACAGCAGAAGCGUUCACGUCGCGGCCCCUGUCAGAUUCUGCUGAAUCUGCGAAUUCUGCUGC` 1.06

Please look up its self-cleavage: `GGUGGCCACAGCAGAAGCGUUCACGUCGCGGCCCCUGUCAGAUUCUGGUGAAUCUGCGAAUUCUGCUGG` 0.283

Please look up its self-cleavage: `GGGGGCCACAGCAGAAGCGUUCACGUCGCGGCCCCUUUCAGAUUCUGGUGAAUCUGCGUAUUCUGCUGU` 0.197
